Where do these numbers come from? They come from paper PMC6332448.

- System under test: NDM-1 (Klebsiella pneumoniae, UniProt C7C422)
- Sequence (C7C422 29-270, looked up, species assumed): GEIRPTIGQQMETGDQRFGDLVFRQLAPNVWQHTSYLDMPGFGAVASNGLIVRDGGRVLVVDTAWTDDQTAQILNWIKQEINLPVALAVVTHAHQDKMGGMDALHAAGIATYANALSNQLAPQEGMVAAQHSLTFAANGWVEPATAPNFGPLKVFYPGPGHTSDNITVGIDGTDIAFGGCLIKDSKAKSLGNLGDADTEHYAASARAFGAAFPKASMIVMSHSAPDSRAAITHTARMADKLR
- Test description: biochemical
- Type: biochemical
- Experimental parameters: 300 μM imipenem, 10 mM HEPES pH 7.5, 25 °C; average of at least two independent assays; read-out: NDM-1 IC50
The recorded IC50 of each item maps onto one of these classes: low (below 20 µM), moderate (20 µM to below 40 µM), high (40 µM or more)

Compound: O=C(O)c1ncccc1NS(=O)(=O)c1ccccc1Cl [Compound 34]
Discrete label: high

Compound: CS(=O)(=O)c1ccc(S(=O)(=O)Nc2cccnc2C(=O)O)cc1 [Compound 30]
Discrete label: high

Compound: O=C(Cc1ccc(Cl)c(Cl)c1)Nc1cccc(C(=O)O)n1 [Compound 28]
Discrete label: low

Please find the next compound below.
State the band of CCCCC(=O)Nc1cccnc1C(=O)O [Compound 20]
low

* * *

A set of molecules tested on VIM-2 (Escherichia coli, UniProt Q5U7L7), with measured IC50:
Write down the numeric answer in µM and omit the unit.

Some molecules with known IC50 results, for comparison:
Molecule: O=C(O)c1ncsc1NS(=O)(=O)c1ccncc1 [Compound 77]
IC50, µM: 1.8

Molecule: O=C(O)c1ncsc1NS(=O)(=O)c1ccccn1 [Compound 75]
IC50, µM: 16.1

Molecule: O=C(Cc1cccs1)Nc1cccnc1C(=O)O [Compound 23]
IC50, µM: 91.3

Molecule: O=C(O)c1ncccc1NS(=O)(=O)Cc1cc(Cl)cc(Cl)c1 [Compound 43]
IC50, µM: 0.3

May I ask what IC50 has been recorded for O=C(O)c1ncccc1NS(=O)(=O)c1ccccc1 [Compound 32] ?
1.9

* * *

Reported IC50 values for a set of compounds
- System under test: IMP-1 (Serratia marcescens)
- Test description: biochemical
- Assay type: biochemical
- Experimental parameters: 300 μM imipenem, 10 mM HEPES pH 7.5, 25 °C; average of at least two independent assays; read-out: IMP-1 IC50

Molecule smiles: O=C(Cc1ccccc1)Nc1ccc(C(=O)O)nc1
System under test: IMP-1 (Serratia marcescens)
Value reported: > 200 µM

Look up IC50 with IMP-1 (Serratia marcescens) for this compound: O=C(Cc1c(Cl)cccc1Cl)Nc1cccc(C(=O)O)n1
80 µM

Follow-up item: CS(=O)(=O)Nc1cccnc1C(=O)O
> 200 µM

Would you mind doing CCCCC(=O)Nc1ccnc(C(=O)O)c1 as well?
> 200 µM

* * *

- System under test: IMP-1 (Serratia marcescens, UniProt P52699)
- Sequence (P52699 19-246, looked up, species assumed): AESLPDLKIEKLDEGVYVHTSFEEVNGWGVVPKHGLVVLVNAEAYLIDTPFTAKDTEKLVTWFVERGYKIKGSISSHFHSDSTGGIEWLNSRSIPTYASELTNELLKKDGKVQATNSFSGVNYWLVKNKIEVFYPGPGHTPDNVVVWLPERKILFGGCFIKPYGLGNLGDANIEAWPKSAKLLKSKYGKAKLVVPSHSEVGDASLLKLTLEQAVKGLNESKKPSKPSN
- Test description: biochemical
- Assay type: biochemical
pIC50: −log10 of the molar value.
List of pIC50 values.

Some compounds with recorded pIC50:
Compound: O=C(O)c1ncccc1NS(=O)(=O)c1ccccc1
System under test: IMP-1 (Serratia marcescens, UniProt P52699)
pIC50: < 3.70
//
Compound: O=C(O)c1ccccn1 [Compound 1, pyridine-2-carboxylic acid, reference compound]
System under test: IMP-1 (Serratia marcescens, UniProt P52699)
pIC50: < 3.70
//
Compound: O=C(O)c1cccc(-c2ccoc2)n1
System under test: IMP-1 (Serratia marcescens, UniProt P52699)
pIC50: < 3.70

pIC50 for O=C(O)c1ncsc1NS(=O)(=O)Cc1ccccc1 ?
5.74

And O=C(O)c1ncccc1NS(=O)(=O)Cc1ccc(Cl)cc1Cl ?
4.13

Next: O=C(O)c1ccc2ccccc2n1
< 3.70
